target: T1, huCD4-HIS (human, UniProt P01730 26-390, limits assumed); assay: ELISA binning; competitor ibalizumab; 100 ng/mL huCD4-HIS, anti-HIS HRP detection; background 45, max binding 3000000
T1 construct: not shown: HIS tag
property: Ibalizumab ELISA binning signal

binder	property	data-value
75110_12H19A (antibody, V domains shown, Tested here as non-clonal hybridoma supernatant from AlivaMab Mouse Kappa mice (detected with anti-mouse Fc and anti-human kappa)) VH: EVQLVESGGGLVQPGGSLRLSCAASGFTFSSYWMSWVRQAPGQGLEWVANINEDGNEKYHVDSVKGRLTISRDNAKNSLYLQMNSLRGVDTAVYFCAREGGQWLALDYWGQGALVTVSS VL: DIQMTQSPSSVSASVGDRVSITCRASQGISSWLAWYQQKPGKAPKLLIYGASGLQSGVPSRFSGSGSGTDFTLTISSLQPEDFATYYCQQANSFPWTFGQGTKVEIK	Ibalizumab ELISA binning signal	1.74e+06
75110_04P08A (antibody, V domains shown, Tested here as non-clonal hybridoma supernatant from AlivaMab Mouse Kappa mice (detected with anti-mouse Fc and anti-human kappa)) VH: QVQLQQWGAGLLKPSETLSLTCAVYGGSLSGYYWSWIRQSPGKGLEWIGEINQSGSTNYNPSLKSRVTISVDTSKDQFSLRLTSVTAADTAVYYCTRVLNWFDPWGRGTLVTVSS VL: DIQMTQSPSSVSASVGDRVTLTCRASQDISNWLAWYQQKPGKAPKLLIYAASSLQSGVPSRFSGSGSGTDFTLTISSLQTEDFATYYCQQANSFPYTFGQGTKLEIK	Ibalizumab ELISA binning signal	1.57e+06
75110_02E08A (antibody, V domains shown, Tested here as non-clonal hybridoma supernatant from AlivaMab Mouse Kappa mice (detected with anti-mouse Fc and anti-human kappa)) VH: QVQLQESGPGLVKPSETLSLTCTVSGGSISTYYWTWIRQPAGKGLEWIGRVYTSGDTNYNPSLKSRVAMSLDTSKNQFSLKLSSVTAADTAVYYCARDSGALYSWNYGDAFDIWGQGTMVTVSS VL: DIQMTQSPSAMSASVGDRVTITCRASQDISNYLAWFQQKPGKVPKRLIYAASSLQSGVPSRFSGSGSGTEFTLTISSLQPEDFATYYCLQHNSYPRTFGQGTKVEIK	Ibalizumab ELISA binning signal	335000

// provenance: patent US20220112288A1
